Source listed as ChEMBL document CHEMBL5291721.

# study.system: 5-hydroxytryptamine receptor 2A (Homo sapiens); further: assay procedure not described here
# Sequence (P28223 whole entry): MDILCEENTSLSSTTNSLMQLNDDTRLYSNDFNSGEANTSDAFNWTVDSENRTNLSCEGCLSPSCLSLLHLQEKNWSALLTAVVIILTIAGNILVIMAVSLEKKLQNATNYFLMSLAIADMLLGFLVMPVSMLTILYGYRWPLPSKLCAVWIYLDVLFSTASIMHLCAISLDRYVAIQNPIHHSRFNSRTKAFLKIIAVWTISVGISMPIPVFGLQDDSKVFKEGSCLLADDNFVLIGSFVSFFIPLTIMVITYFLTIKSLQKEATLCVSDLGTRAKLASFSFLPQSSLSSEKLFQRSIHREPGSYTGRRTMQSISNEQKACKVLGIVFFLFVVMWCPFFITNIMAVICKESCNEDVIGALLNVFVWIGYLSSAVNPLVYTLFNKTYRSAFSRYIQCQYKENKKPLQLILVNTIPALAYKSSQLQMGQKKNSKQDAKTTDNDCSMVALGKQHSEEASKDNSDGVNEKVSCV
# Assay type: functional, cell-based
This listing pairs compounds with measured AC50.

Request: Indicate its recorded AC50; the compound in question is CN1C(=O)CCS(=O)(=O)C1c1ccc(Cl)cc1 (centres undefined)
Result: > 10 µM

Request: Hello, please tell me recorded AC50 for this one: `Cc1nc([N+](=O)[O-])cn1-c1ccc([N+](=O)[O-])cc1`
Result: > 30 µM

Request: Quick one: give measured AC50 for `C[C@H](CSC(=O)c1ccccc1)C(=O)N1C[C@@H](Sc2ccccc2)C[C@H]1C(=O)O`
Result: > 10 µM

Further cases:
Request: Specify measured AC50 for CC(Oc1c(Cl)cccc1Cl)C1=NCCN1 (centres undefined) .
Result: > 30 µM

====

Protein target, amino acids: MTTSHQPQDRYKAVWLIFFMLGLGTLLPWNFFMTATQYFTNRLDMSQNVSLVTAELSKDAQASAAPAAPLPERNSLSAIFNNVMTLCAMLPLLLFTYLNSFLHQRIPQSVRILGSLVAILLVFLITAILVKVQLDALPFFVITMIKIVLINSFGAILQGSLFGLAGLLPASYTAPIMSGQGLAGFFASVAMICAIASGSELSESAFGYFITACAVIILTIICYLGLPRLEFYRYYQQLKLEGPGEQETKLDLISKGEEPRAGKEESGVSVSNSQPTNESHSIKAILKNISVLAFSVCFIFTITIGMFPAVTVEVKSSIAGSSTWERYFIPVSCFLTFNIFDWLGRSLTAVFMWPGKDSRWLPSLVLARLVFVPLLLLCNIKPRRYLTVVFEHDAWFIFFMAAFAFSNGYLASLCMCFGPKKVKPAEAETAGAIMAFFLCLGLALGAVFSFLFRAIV
recorded.endpoint: AC50

Here's what some known entries look like.
Request: Give the measured AC50 for `CCOC(=O)[C@H](CCc1ccccc1)N[C@@H](C)C(=O)N1[C@H](C(=O)O)C[C@@H]2CCC[C@@H]21`
Result: > 30 µM

Request: Output measured AC50 for this item: Cc1c(C(=O)NN2CCCCC2)nn(-c2ccc(Cl)cc2Cl)c1-c1ccc(Cl)cc1 [RIMONABANT]
Result: 20.1 µM

Request: Could you please provide reported AC50 for C[C@]12CCC(=O)C=C1CC[C@@H]1[C@@H]2[C@@H](O)C[C@@]2(C)[C@H]1CC[C@]2(O)C(=O)CO [HYDROCORTISONE] ? Thanks!
Result: > 30 µM

***
Request: Using known records, supply AC50 for CC(Oc1c(Cl)cccc1Cl)C1=NCCN1 (stereo unspecified) [LOFEXIDINE]
Result: > 30 µM

Request: Give AC50 for the following compound: COC(=O)C1=C(C)NC(C)=C(C(=O)OC(C)(C)CN(C)CCC(c2ccccc2)c2ccccc2)C1c1cccc([N+](=O)[O-])c1 (stereo unspecified) [LERCANIDIPINE]
Result: > 30 µM

Request: Given CCOc1ccccc1OCC1CNCCO1 (stereo unspecified) [VILOXAZINE] , respond with its AC50.
Result: > 30 µM

====

compounds and their reported AC50
# study.system: Progesterone receptor (Homo sapiens, UniProt P06401); further: assay procedure not described here
# Sequence (P06401 whole entry): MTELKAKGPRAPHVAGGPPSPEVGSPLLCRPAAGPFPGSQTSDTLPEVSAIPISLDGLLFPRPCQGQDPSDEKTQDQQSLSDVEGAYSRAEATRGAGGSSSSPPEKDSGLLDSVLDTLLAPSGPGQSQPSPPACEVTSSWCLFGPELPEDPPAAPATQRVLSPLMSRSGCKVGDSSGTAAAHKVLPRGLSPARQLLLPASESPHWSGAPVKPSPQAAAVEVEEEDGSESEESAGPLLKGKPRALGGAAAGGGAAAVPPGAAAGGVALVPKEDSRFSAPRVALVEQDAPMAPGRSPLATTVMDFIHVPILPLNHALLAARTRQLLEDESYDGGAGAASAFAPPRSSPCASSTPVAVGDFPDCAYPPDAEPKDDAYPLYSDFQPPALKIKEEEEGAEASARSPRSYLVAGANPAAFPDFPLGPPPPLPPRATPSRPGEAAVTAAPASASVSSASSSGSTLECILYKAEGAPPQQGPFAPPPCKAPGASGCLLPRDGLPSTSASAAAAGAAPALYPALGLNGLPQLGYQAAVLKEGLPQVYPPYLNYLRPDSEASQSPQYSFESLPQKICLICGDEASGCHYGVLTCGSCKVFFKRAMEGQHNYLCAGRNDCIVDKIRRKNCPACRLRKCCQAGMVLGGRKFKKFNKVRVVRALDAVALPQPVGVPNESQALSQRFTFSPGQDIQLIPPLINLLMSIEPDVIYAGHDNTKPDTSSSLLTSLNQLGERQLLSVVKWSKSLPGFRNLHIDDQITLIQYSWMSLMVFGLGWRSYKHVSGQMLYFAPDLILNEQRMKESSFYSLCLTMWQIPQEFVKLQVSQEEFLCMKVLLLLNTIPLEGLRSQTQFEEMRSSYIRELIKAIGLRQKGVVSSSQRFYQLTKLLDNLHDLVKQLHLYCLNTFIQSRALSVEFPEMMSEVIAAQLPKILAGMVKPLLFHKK
# Format: functional

Example results:
Request: Jot down AC50 (Progesterone receptor (Homo sapiens, UniProt P06401)) of COCCCN1CCC(NC(=O)c2cc(Cl)c(N)c3c2OCC3)CC1 [PRUCALOPRIDE] .
Result: > 30 µM

Request: # return AC50 for CC(=O)O[C@H]1CC[C@@]2(C)C(=CC[C@@H]3[C@@H]2CC[C@]2(C)C(c4cccnc4)=CC[C@@H]32)C1 [ABIRATERONE ACETATE] , test system: Progesterone receptor (Homo sapiens, UniProt P06401); further: assay procedure not described here
Result: > 30 µM

Request: Tell me its AC50 on Progesterone receptor (Homo sapiens, UniProt P06401): COc1ccccc1OCCNCC(O)c1ccc(C)c(S(N)(=O)=O)c1 (configuration not stated)
Result: > 30 µM

Request: Provide measured AC50 on Progesterone receptor (Homo sapiens, UniProt P06401) for CN(C)CC/C=C1\c2ccccc2CSc2ccccc21 [DOTHIEPIN] please.
Result: > 30 µM

Request: Identify measured AC50 obtained with Progesterone receptor (Homo sapiens, UniProt P06401) for `CC(=O)OCC(=O)[C@@]12N=C(C)O[C@@H]1C[C@H]1[C@@H]3CCC4=CC(=O)C=C[C@]4(C)[C@H]3[C@@H](O)C[C@@]12C` .
Result: 3.7 µM

Others:
Request: Check Progesterone receptor (Homo sapiens, UniProt P06401) data and give AC50 for O=C(OCC(O)CO)c1ccccc1Nc1ccnc2cc(Cl)ccc12 (configuration not stated) .
Result: > 30 µM

Request: Tell me its AC50 on Progesterone receptor (Homo sapiens, UniProt P06401): CCCN1C[C@H](CSC)C[C@@H]2c3cccc4[nH]cc(c34)C[C@H]21 [PERGOLIDE]
Result: > 30 µM

Request: GET AC50 | system: Progesterone receptor (Homo sapiens, UniProt P06401) | item: CNC1Cc2ccccc2N(C)c2ccccc21 (configuration not stated); further: assay procedure not described here
Result: > 30 µM

Request: Answer briefly: AC50 recorded on Progesterone receptor (Homo sapiens, UniProt P06401) for `CCOC(=O)[C@H](CCc1ccccc1)N[C@@H](C)C(=O)N1C(=O)N(C)C[C@H]1C(=O)O`
Result: > 30 µM

Request: Look up and report measured AC50 (Progesterone receptor (Homo sapiens, UniProt P06401)) for the following compound: `C[C@H]1CNCCc2ccc(Cl)cc21`
Result: > 30 µM

Request: Report AC50 under test system Progesterone receptor (Homo sapiens, UniProt P06401) for CCCC(C)C1(CC)C(=O)NC(=O)NC1=O (configuration not stated) . Further: assay procedure not described here.
Result: > 10 µM

Request: Fill in: AC50 on Progesterone receptor (Homo sapiens, UniProt P06401), entry O=C(NCCN1CCOCC1)c1ccc(Cl)cc1 [MOCLOBEMIDE]
Result: > 10 µM

====

# study.system: Histamine H2 receptor (Homo sapiens); further: assay procedure not described here
# Assay type: functional, cell-based
recorded.endpoint: AC50

Below are worked cases with known answers.
Request: Please report the measured AC50 for Cc1c(OCC(F)(F)F)ccnc1C[S+]([O-])c1nc2ccccc2[nH]1 (configuration not stated) [LANSOPRAZOLE]
Result: > 10 µM

Request: Write down AC50 measured for item `CCCCN1C[C@H](O)[C@@H](O)[C@H](O)[C@H]1CO`
Result: > 30 µM

Request: Please report the measured AC50 for O=C(O)C1=C(CSc2nnnn2CS(=O)(=O)O)CS[C@@H]2[C@H](NC(=O)[C@H](O)c3ccccc3)C(=O)N12 [CEFONICID]
Result: > 30 µM

Request: Report AC50 for C=CCC1(CC(C)C)C(=O)NC(=O)NC1=O [BUTALBITAL]
Result: > 30 µM

Request: Given the compound O=[N+]([O-])O[C@@H]1CO[C@H]2[C@@H]1OC[C@@H]2O [ISOSORBIDE MONONITRATE] , write its reported AC50.
Result: > 10 µM

Request: Hello, please tell me recorded AC50 for this one: CC(C)(C)c1cc(C(C)(C)C)c(NC(=O)c2c[nH]c3ccccc3c2=O)cc1O [IVACAFTOR]
Result: > 10 µM

Request: Look up AC50 of Clc1ccc2nsnc2c1NC1=NCCN1 [TIZANIDINE] and report it.
Result: 0.93 µM

Request: Determine its reported AC50: CS(=O)(=O)c1ccc(C2=C(c3ccccc3)C(=O)OC2)cc1 [ROFECOXIB]
Result: > 30 µM

Shift focus to the following entry.
Request: Please report the measured AC50 for C[C@H](N)[C@H](O)c1cccc(O)c1 [METARAMINOL]
Result: > 30 µM

====

# study.system: 3',5'-cyclic-AMP phosphodiesterase 4D (Homo sapiens, UniProt Q08499); further: assay procedure not described here
# Sequence (Q08499 whole entry): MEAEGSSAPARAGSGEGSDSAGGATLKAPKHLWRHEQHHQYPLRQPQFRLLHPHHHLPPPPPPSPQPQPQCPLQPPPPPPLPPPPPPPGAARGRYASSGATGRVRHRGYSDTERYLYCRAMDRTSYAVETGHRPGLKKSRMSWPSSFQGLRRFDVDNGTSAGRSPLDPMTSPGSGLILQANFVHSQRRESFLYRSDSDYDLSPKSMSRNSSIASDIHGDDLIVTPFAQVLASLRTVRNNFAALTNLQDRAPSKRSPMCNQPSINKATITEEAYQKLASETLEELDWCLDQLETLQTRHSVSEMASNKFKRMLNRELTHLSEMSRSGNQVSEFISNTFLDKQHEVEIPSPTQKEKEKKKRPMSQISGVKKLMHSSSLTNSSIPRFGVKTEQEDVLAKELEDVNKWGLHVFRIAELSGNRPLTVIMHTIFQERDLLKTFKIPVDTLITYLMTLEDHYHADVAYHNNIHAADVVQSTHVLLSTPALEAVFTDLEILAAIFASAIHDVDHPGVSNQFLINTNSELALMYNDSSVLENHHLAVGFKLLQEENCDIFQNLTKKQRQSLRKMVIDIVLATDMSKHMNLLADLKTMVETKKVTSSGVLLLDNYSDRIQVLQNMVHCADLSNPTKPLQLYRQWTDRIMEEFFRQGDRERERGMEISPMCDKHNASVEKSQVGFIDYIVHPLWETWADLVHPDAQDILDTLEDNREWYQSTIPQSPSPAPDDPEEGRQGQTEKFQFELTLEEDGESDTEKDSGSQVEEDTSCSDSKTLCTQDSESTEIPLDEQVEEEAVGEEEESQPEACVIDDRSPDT
# Assay type: functional
Reported AC50 values are given for each entry in this list.

Recorded AC50, per entry:
Request: Answer with reported AC50 of `CN(C)CCc1c[nH]c2ccc(C[C@H]3COC(=O)N3)cc12`
Result: > 30 µM

Request: Note AC50 for the compound shown: COc1ccccc1OCC(O)CN1CCN(CC(=O)Nc2c(C)cccc2C)CC1 (stereo not drawn)
Result: > 30 µM

More entries:
Request: Supply measured AC50 of `Cc1c(C(=O)NN2CCCCC2)nn(-c2ccc(Cl)cc2Cl)c1-c1ccc(Cl)cc1` in your reply.
Result: > 30 µM

====

// endpoint AC50 / system Motilin receptor (Homo sapiens, UniProt O43193); further: assay procedure not described here

Request: Find AC50 for CNC1Cc2ccccc2N(C)c2ccccc21 (centres undefined) [METAPRAMINE] on Motilin receptor (Homo sapiens, UniProt O43193) and write it down.
Sequence (O43193 whole entry): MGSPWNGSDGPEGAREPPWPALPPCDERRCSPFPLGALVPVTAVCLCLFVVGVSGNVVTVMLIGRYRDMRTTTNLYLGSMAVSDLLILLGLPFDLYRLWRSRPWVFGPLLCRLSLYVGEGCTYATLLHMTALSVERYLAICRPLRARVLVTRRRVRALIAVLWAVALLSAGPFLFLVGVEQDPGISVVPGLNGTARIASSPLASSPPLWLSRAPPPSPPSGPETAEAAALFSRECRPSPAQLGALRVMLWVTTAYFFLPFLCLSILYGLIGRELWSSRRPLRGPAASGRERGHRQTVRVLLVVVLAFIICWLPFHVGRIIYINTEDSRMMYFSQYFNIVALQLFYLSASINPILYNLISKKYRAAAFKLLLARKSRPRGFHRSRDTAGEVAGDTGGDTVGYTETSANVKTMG
Result: > 30 µM

====

Listed compounds paired with reported AC50
# study.system: Histamine H2 receptor (Homo sapiens, UniProt P25021); further: assay procedure not described here
# Sequence (P25021 whole entry): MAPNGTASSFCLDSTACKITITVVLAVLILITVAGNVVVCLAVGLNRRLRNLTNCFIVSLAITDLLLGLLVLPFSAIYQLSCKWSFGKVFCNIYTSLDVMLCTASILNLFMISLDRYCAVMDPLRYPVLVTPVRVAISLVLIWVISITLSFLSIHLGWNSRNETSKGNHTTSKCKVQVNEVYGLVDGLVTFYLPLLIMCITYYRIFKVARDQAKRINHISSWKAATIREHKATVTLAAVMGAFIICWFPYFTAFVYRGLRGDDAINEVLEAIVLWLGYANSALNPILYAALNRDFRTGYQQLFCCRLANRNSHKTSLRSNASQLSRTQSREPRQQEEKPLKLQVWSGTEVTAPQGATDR
# Assay type: functional, cell-based

For orientation, consider the following solved cases.
Request: Please give the documented AC50 of Nc1ccn([C@H]2CC[C@@H](CO)O2)c(=O)n1 [ZALCITABINE]
Result: > 10 µM

Request: Note down AC50 recorded for `COc1ccc(-c2ccc3cc(C(=O)O)ccc3c2)cc1C12CC3CC(CC(C3)C1)C2`
Result: > 30 µM

Request: Supply AC50 value. Item: C[C@@H](O)[C@H]1C(=O)N2C(C(=O)O)=C(S[C@@H]3CN[C@H](C(=O)N(C)C)C3)[C@H](C)[C@H]12 [MEROPENEM]
Result: > 10 µM

Request: Tell us which AC50 value is on record for CC(=O)OCC(=O)[C@@]12N=C(C)O[C@@H]1C[C@H]1[C@@H]3CCC4=CC(=O)C=C[C@]4(C)[C@H]3[C@@H](O)C[C@@]12C [DEFLAZACORT]
Result: > 30 µM

Request: Assign AC50 to the following record: CC(C)=CCC/C(C)=C/C=C/C(C)=C/C=C/C(C)=C/C=C/C=C(C)/C=C/C=C(C)/C=C/C=C(\C)CCC=C(C)C [LYCOPENE]
Result: > 30 µM

Others:
Request: In one line, give reported AC50 of the entry COc1ccccc1OCCNCC(O)c1ccc(C)c(S(N)(=O)=O)c1 (stereo not given) [AMOSULALOL] .
Result: > 30 µM

Request: For CN1CCN(C2=Nc3ccccc3Sc3ccc(Cl)cc32)CC1 [CLOTHIAPINE] , write its AC50.
Result: > 30 µM

Request: Look up and state reported AC50 for CC[C@H]1OC(=O)[C@H](C)[C@@H](O[C@H]2C[C@@](C)(OC)[C@@H](O)[C@H](C)O2)[C@H](C)[C@@H](O[C@@H]2O[C@H](C)C[C@H](N(C)C)[C@H]2O)[C@](C)(O)C[C@@H](C)CN(C)[C@H](C)[C@@H](O)[C@]1(C)O [AZITHROMYCIN]
Result: > 10 µM

Request: Give AC50 for Cc1ccc(-c2cc(C(F)(F)F)nn2-c2ccc(S(N)(=O)=O)cc2)cc1 [CELECOXIB]
Result: > 10 µM

Request: Recall and state the measured AC50 for CN1CCN(CC/C=C2/c3ccccc3Sc3ccc(S(=O)(=O)N(C)C)cc32)CC1 [THIOTHIXENE] .
Result: > 10 µM
